# System: Escherichia coli clinical isolates from U.S. veterans
# assay_explanation: Susceptibility testing (broth microdilution or disk diffusion) at VAMCs with population back-calculations
# Format: cell-based
# experimental_conditions: resistance phenotype, back-calculated with 29% FQ resistance
Binary call on Overall prevalence in population, % with cut-off 20%: strictly below means yes, and equality or higher means no.

{"line_notation": "CO/N=C(\\C(=O)N[C@@H]1C(=O)N2C(C(=O)O)=C(CSc3nc(=O)c(=O)[nH]n3C)CS[C@H]12)c1csc(N)n1", "discrete_label": "yes"}

Here is another molecule to look at.
Is Overall prevalence in population, % strictly under 20% for the entry `CC1(C)S[C@@H]2[C@H](NC(=O)[C@H](N)c3ccccc3)C(=O)N2[C@H]1C(=O)O` ?
no

----------
# Test system: extraintestinal Escherichia coli isolates
# assay_explanation: Antimicrobial susceptibility testing (CLSI breakpoints), Olmsted County isolates
# Assay type: cell-based
# experimental_conditions: non-H30 ST131, N = 10
measurement_type: Resistance prevalence among non-H30 ST131

{"line_notation": "O=C1CN(/N=C/c2ccc([N+](=O)[O-])o2)C(=O)N1", "assay_target": "extraintestinal Escherichia coli isolates", "value_measured": "13%"}
{"line_notation": "Cc1nnc(SCC2=C(C(=O)O)N3C(=O)[C@@H](NC(=O)Cn4cnnn4)[C@H]3SC2)s1", "assay_target": "extraintestinal Escherichia coli isolates", "value_measured": "50%"}
{"line_notation": "CC1(C)S[C@@H]2[C@H](NC(=O)[C@H](N)c3ccccc3)C(=O)N2[C@H]1C(=O)O", "assay_target": "extraintestinal Escherichia coli isolates", "value_measured": "80%"}

Identify Resistance prevalence among non-H30 ST131 associated with the compound `CO/N=C(\C(=O)N[C@@H]1C(=O)N2C(C(=O)O)=C(CSc3nc(=O)c(=O)[nH]n3C)CS[C@H]12)c1csc(N)n1`
29%

----------
# Test system: Escherichia coli clinical isolates from U.S. veterans
# assay_explanation: Susceptibility testing (broth microdilution or disk diffusion) at VAMCs with population back-calculations
# Assay type: cell-based
# experimental_conditions: resistance prevalence among H30 ST131 subclone isolates relative to all other isolates
measurement_type: Prevalence ratio of resistance
Please respond with just the number, no unit label.

// below: answered compounds
{"line_notation": "CO/N=C(\\C(=O)N[C@@H]1C(=O)N2C(C(=O)O)=C(CSc3nc(=O)c(=O)[nH]n3C)CS[C@H]12)c1csc(N)n1", "Prevalence ratio of resistance": 2.0}
{"line_notation": "CC1(C)S[C@@H]2[C@H](NC(=O)[C@H](N)c3ccccc3)C(=O)N2[C@H]1C(=O)O", "Prevalence ratio of resistance": 2.1}
{"line_notation": "C[C@@H](O)[C@H]1C(=O)N2C(C(=O)O)=C(SCCN=CN)C[C@H]12", "Prevalence ratio of resistance": 1.4}
{"line_notation": "Cc1nnc(SCC2=C(C(=O)O)N3C(=O)[C@@H](NC(=O)Cn4cnnn4)[C@H]3SC2)s1", "Prevalence ratio of resistance": 2.0}

For Escherichia coli clinical isolates from U.S. veterans, give Prevalence ratio of resistance of the listed compound: `O=C1CN(/N=C/c2ccc([N+](=O)[O-])o2)C(=O)N1`
3.4

----------
Listing of recorded Prevalence of resistance, ST131 by entry.
# Test system: Escherichia coli clinical isolates from U.S. veterans
# assay_explanation: Susceptibility testing (broth microdilution or disk diffusion) at VAMCs with population back-calculations
# Format: cell-based
# experimental_conditions: ST131 isolates (ST131 vs. others)

{"line_notation": "O=C1CN(/N=C/c2ccc([N+](=O)[O-])o2)C(=O)N1", "assay_target": "Escherichia coli clinical isolates from U.S. veterans", "value_measured": 8}
{"line_notation": "Cc1nnc(SCC2=C(C(=O)O)N3C(=O)[C@@H](NC(=O)Cn4cnnn4)[C@H]3SC2)s1", "assay_target": "Escherichia coli clinical isolates from U.S. veterans", "value_measured": 29}
{"line_notation": "C[C@@H](O)[C@H]1C(=O)N2C(C(=O)O)=C(SCCN=CN)C[C@H]12", "assay_target": "Escherichia coli clinical isolates from U.S. veterans", "value_measured": 0.4}
{"line_notation": "CC1(C)S[C@@H]2[C@H](NC(=O)[C@H](N)c3ccccc3)C(=O)N2[C@H]1C(=O)O", "assay_target": "Escherichia coli clinical isolates from U.S. veterans", "value_measured": 77}

Now turn to the next compound.
Complete the entry with Prevalence of resistance, ST131 for `CO/N=C(\C(=O)N[C@@H]1C(=O)N2C(C(=O)O)=C(CSc3nc(=O)c(=O)[nH]n3C)CS[C@H]12)c1csc(N)n1`
3
